Recorded measurements of Signal/background, one per entry
# TESTED_SYSTEM: T1, MAGEB2 peptide … (SEQ ID NO: 1) complexed with HLA-A*02:01 on the cell surface (human)
# T1 construct: whole, on cells; also called pMAGE-HLA; MAGEB2 pMHC
# METHOD_NOTES: flow cytometry, peptide-loaded T2 cells;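 note: binding of single-chain Fv antibody constructs, raised in XenoMouse, to peptide-pulsed T2 cells measured by flow cytometry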
Form rule: numeric answer, no unit written next to it.

The examples below pair each entry with its known result.
>  <BINDER>
18181-G8 (scFv, scFv in bacterial lysate, detected with anti-Flag M2) scFv: EVQLLESGGGLVQPGGSLRLSCAASGFTFSNAWMSWVRQAPGKGLEWVGRIKGNTYGGTTDYAAPVKGRFTISRDDSKNTLFLQMNSLKTEDTAVYYCTTPSNSGSYYNYFSVMDVWGQGTTVTVSSGGGGSGGGGSGGGGSELVMTQSPSSLSASVGDRVTITCRTSQSISSYLNWYQQKPGKAPKLLIYAASSLQSGVPSRFSGSGSGTDFTLTISSLQPEDFATYYCQQTYSMPFTFGGGTKVEIK

>  <Signal/background>
489

$$$$
>  <BINDER>
18179-H7 (scFv, scFv in bacterial lysate, detected with anti-Flag M2) scFv: EVQLLESGGGLVQPGGSLRLSCAASGFTFSNAWMSWVRQAPGKGLEWVGRIKSKTYGGTTDYAAPVKGRFTISRDDSKNTLYLQMNSLKTEDTAVYYCTTPSYSGSYYNYFSVMDVWGQGTTVTVSSGGGGSGGGGSGGGGSELQMTQSPSSLSASVGDRVTITCRTSQSISSYLNWFQQKPGKAPKLLIFAASSLQSGVPSRFSGSGSGTDFTLTISSLQPEDFATYYCQQSYSSPFTFGPGTKVEIK

>  <Signal/background>
399

$$$$

Lab note: next binder to report on.
Signal/background measured on 18181-E2 (scFv, scFv in bacterial lysate, detected with anti-Flag M2) scFv: EVQLLESGPGLVKPSQTLSLTCTVSGDSISSNPYYWSWIRQHPGKGLEWIGYISHSGSTYYNPSLKSRVTISVDTSKNQFSLNLTSVTAADTAVYYCARDRLWFGVLNYYYGMDVWGLGTTVTVSSGGGGSGGGGSGGGGSELVMTQSPLSLPVTPGEPASISCRSSQSLLHSSGYNYLDWYLQKPGQSPQLLIYLGSNRASGVPDRFSGSGSGTDFTLKISKVEAEDVGVYYCMQALQTPRTFGQGTKVDIK = 103
